# test name: Spectroscopic measurements (absorption, emission, quantum yield, extinction coefficient)
# Assay type: physicochemical
# condition description: BDNCA library
readout label: Qunt. Yield
Give a plain numeric answer without units written out.

smiles string: COc1ccccc1/C=C/c1cc(C)c2n1[B-](F)(F)[N+]1=CC=CC1=C2c1ccc(NC(=O)CCl)cc1
recorded measurement: 0.15

## Task Form field: reported Qunt. Yield of `CC1=CC(/C=C/c2ccc(C(C)(C)C)cc2)=[N+]2C1=C(c1ccc(NC(=O)CCl)cc1)c1cccn1[B-]2(F)F`
## Result 0.15

## Task Now try `COc1cc(Br)cc(/C=C/C2=[N+]3C(=C(c4ccc(NC(=O)CCl)cc4)c4cccn4[B-]3(F)F)C(C)=C2)c1OC` .
## Result 0.13

## Task Now try `COc1ccc(/C=C/C2=[N+]3C(=C(c4ccc(NC(=O)CCl)cc4)c4cccn4[B-]3(F)F)C(C)=C2)cc1OCc1ccccc1` .
## Result 0.19

## Task Now try `CC1=CC(/C=C/c2ccccc2)=[N+]2C1=C(c1ccc(NC(=O)CCl)cc1)c1cccn1[B-]2(F)F` .
## Result 0.11

## Task Now try `COc1cc(Cl)cc(/C=C/C2=[N+]3C(=C(c4ccc(NC(=O)CCl)cc4)c4cccn4[B-]3(F)F)C(C)=C2)c1OC` .
## Result 0.12

----------
# test name: Spectroscopic measurements (absorption, emission, quantum yield, extinction coefficient)
# Type: physicochemical
# condition description: BDNCA library, fluorescence emission
readout label: Flu
Give a plain numeric answer without units written out.

smiles string: CC(=O)Nc1ccc(/C=C/C2=[N+]3C(=C(c4ccc(NC(=O)CCl)cc4)c4cccn4[B-]3(F)F)C(C)=C2)cc1
readout label: Flu
recorded measurement: 599

## Task Form field: reported Flu of `COc1ccc(/C=C/C2=[N+]3C(=C(c4ccc(NC(=O)CCl)cc4)c4cccn4[B-]3(F)F)C(C)=C2)cc1Br`
## Result 591

## Task Now try `CCCCCCOc1ccc(/C=C/C2=[N+]3C(=C(c4ccc(NC(=O)CCl)cc4)c4cccn4[B-]3(F)F)C(C)=C2)cc1` .
## Result 598

## Task Now try `Cc1cc(/C=C/c2ccc(Oc3ccc(Cl)cc3)cc2)n2c1C(c1ccc(NC(=O)CCl)cc1)=C1C=CC=[N+]1[B-]2(F)F` .
## Result 585

## Task Now try `CC1=CC(/C=C/c2ccccc2)=[N+]2C1=C(c1ccc(NC(=O)CCl)cc1)c1cccn1[B-]2(F)F` .
## Result 577

## Task Now try `COc1cc(Cl)c(/C=C/C2=[N+]3C(=C(c4ccc(NC(=O)CCl)cc4)c4cccn4[B-]3(F)F)C(C)=C2)c(Cl)c1O` .
## Result 583

## Task Now try `CC1=CC(/C=C/c2c(Cl)ccc(C)c2F)=[N+]2C1=C(c1ccc(NC(=O)CCl)cc1)c1cccn1[B-]2(F)F` .
## Result 573

## Task Now try `CC1=CC(/C=C/c2ccc(Oc3cccc(Cl)c3)cc2)=[N+]2C1=C(c1ccc(NC(=O)CCl)cc1)c1cccn1[B-]2(F)F` .
## Result 577

## Task Now try `COc1ccc([N+](=O)[O-])cc1/C=C/C1=[N+]2C(=C(c3ccc(NC(=O)CCl)cc3)c3cccn3[B-]2(F)F)C(C)=C1` .
## Result 581

----------
As shown below, each of these compounds has a reported ε value.
# test name: Spectroscopic measurements (absorption, emission, quantum yield, extinction coefficient)
# Format: physicochemical
# condition description: extinction coefficient, BDNCA library; in M-1 cm-1 (unit assumed)

Solved cases below.
smiles string: CC1=CC(/C=C/c2ccc(Oc3ccc(F)cc3)cc2)=[N+]2C1=C(c1ccc(NC(=O)CCl)cc1)c1cccn1[B-]2(F)F
recorded measurement: 67,826
//
smiles string: CC1=CC(/C=C/c2cccc(C)c2C)=[N+]2C1=C(c1ccc(NC(=O)CCl)cc1)c1cccn1[B-]2(F)F
recorded measurement: 36,247

## Task Form field: reported ε of `Cc1cc(/C=C/c2ccc(Br)cc2)n2c1C(c1ccc(NC(=O)CCl)cc1)=C1C=CC=[N+]1[B-]2(F)F`
## Result 87,597

## Task Now try `COc1ccc(/C=C/c2cc(C)c3n2[B-](F)(F)[N+]2=CC=CC2=C3c2ccc(NC(=O)CCl)cc2)c(Cl)c1OC` .
## Result 69,474

## Task Now try `CC1=CC(/C=C/c2c3ccccc3c(C)c3ccccc23)=[N+]2C1=C(c1ccc(NC(=O)CCl)cc1)c1cccn1[B-]2(F)F` .
## Result 36,247

## Task Now try `CC1=CC(/C=C/c2cccc([N+](=O)[O-])c2O)=[N+]2C1=C(c1ccc(NC(=O)CCl)cc1)c1cccn1[B-]2(F)F` .
## Result 15,652

## Task Now try `CC1=CC(/C=C/c2ccc(-c3ccccc3)c(F)c2)=[N+]2C1=C(c1ccc(NC(=O)CCl)cc1)c1cccn1[B-]2(F)F` .
## Result 46,957

## Task Now try `COc1cccc(/C=C/C2=[N+]3C(=C(c4ccc(NC(=O)CCl)cc4)c4cccn4[B-]3(F)F)C(C)=C2)c1F` .
## Result 52,998

## Task Now try `CCOc1ccc(/C=C/C2=[N+]3C(=C(c4ccc(NC(=O)CCl)cc4)c4cccn4[B-]3(F)F)C(C)=C2)cc1` .
## Result 64,531

## Task Now try `CC(=O)Oc1ccc(/C=C/c2cc(C)c3n2[B-](F)(F)[N+]2=CC=CC2=C3c2ccc(NC(=O)CCl)cc2)cc1` .
## Result 47,780

## Task Now try `Cc1cc(/C=C/c2cc(OC(F)(F)F)ccc2O)n2c1C(c1ccc(NC(=O)CCl)cc1)=C1C=CC=[N+]1[B-]2(F)F` .
## Result 16,476

----------
# test name: Spectroscopic measurements (absorption, emission, quantum yield, extinction coefficient)
# Assay type: physicochemical
# condition description: BDNCA library, difference emission minus absorption
As shown below, each of these compounds has a reported Flu-Abs value.
Give a plain numeric answer without units written out.

compound: CCCCOc1ccc(/C=C/C2=[N+]3C(=C(c4ccc(NC(=O)CCl)cc4)c4cccn4[B-]3(F)F)C(C)=C2)cc1 [BDNCA-46]
recorded measurement: 32

compound: CC1=CC(/C=C/c2ccc(-c3cncnc3)cc2)=[N+]2C1=C(c1ccc(NC(=O)CCl)cc1)c1cccn1[B-]2(F)F [BDNCA-199]
recorded measurement: 20

compound: CCCc1ccc(/C=C/C2=[N+]3C(=C(c4ccc(NC(=O)CCl)cc4)c4cccn4[B-]3(F)F)C(C)=C2)cc1 [BDNCA-77]
recorded measurement: 22

compound: CC1=CC(/C=C/c2ccc(C)o2)=[N+]2C1=C(c1ccc(NC(=O)CCl)cc1)c1cccn1[B-]2(F)F [BDNCA-135]
recorded measurement: 41

Next up:
## Task Form field: reported Flu-Abs of Cc1cc(/C=C/c2ccc(Oc3ccc(C=O)cc3)cc2)n2c1C(c1ccc(NC(=O)CCl)cc1)=C1C=CC=[N+]1[B-]2(F)F [BDNCA-304]
## Result 25

----------
As shown below, each of these compounds has a reported ε value.
# test name: Spectroscopic measurements (absorption, emission, quantum yield, extinction coefficient)
# Format: physicochemical
# condition description: BDNCA library, extinction coefficient; in M-1 cm-1 (unit assumed)

smiles string: CC1=CC(/C=C/c2csc3ccccc23)=[N+]2C1=C(c1ccc(NC(=O)CCl)cc1)c1cccn1[B-]2(F)F
recorded measurement: 71,121
//
smiles string: CC1=CC(/C=C/c2ccccc2C)=[N+]2C1=C(c1ccc(NC(=O)CCl)cc1)c1cccn1[B-]2(F)F
recorded measurement: 50,801
//
smiles string: COc1ccccc1/C=C/c1cc(C)c2n1[B-](F)(F)[N+]1=CC=CC1=C2c1ccc(NC(=O)CCl)cc1
recorded measurement: 76,064

Next up:
## Task Form field: reported ε of `Cc1cc(/C=C/c2ccccc2OC(F)F)n2c1C(c1ccc(NC(=O)CCl)cc1)=C1C=CC=[N+]1[B-]2(F)F`
## Result 47,506

----------
As shown below, each of these molecules has a reported Flu-Abs value.
# test name: Spectroscopic measurements (absorption, emission, quantum yield, extinction coefficient)
# Type: physicochemical
# condition description: BDNCA library, difference emission minus absorption
Give a plain numeric answer without units written out.

Solved cases below.
smiles string: CC1=CC(/C=C/c2cc(Br)ccc2O)=[N+]2C1=C(c1ccc(NC(=O)CCl)cc1)c1cccn1[B-]2(F)F
Flu-Abs: 21
--
smiles string: CCOc1ccc(/C=C/C2=[N+]3C(=C(c4ccc(NC(=O)CCl)cc4)c4cccn4[B-]3(F)F)C(C)=C2)cc1OC
Flu-Abs: 51
--
smiles string: COc1cc(/C=C/C2=[N+]3C(=C(c4ccc(NC(=O)CCl)cc4)c4cccn4[B-]3(F)F)C(C)=C2)cc(OC)c1OC(C)=O
Flu-Abs: 24
--
smiles string: Cc1ccc(/C=C/c2cc(C)c3n2[B-](F)(F)[N+]2=CC=CC2=C3c2ccc(NC(=O)CCl)cc2)cc1[N+](=O)[O-]
Flu-Abs: 19
--
smiles string: Cc1cc(/C=C/c2ccc(CO)o2)n2c1C(c1ccc(NC(=O)CCl)cc1)=C1C=CC=[N+]1[B-]2(F)F
Flu-Abs: 33
--
smiles string: COc1ccc(/C=C/c2cc(C)c3n2[B-](F)(F)[N+]2=CC=CC2=C3c2ccc(NC(=O)CCl)cc2)c(OC)c1
Flu-Abs: 44
--
smiles string: C=CCOc1ccc(/C=C/C2=[N+]3C(=C(c4ccc(NC(=O)CCl)cc4)c4cccn4[B-]3(F)F)C(C)=C2)cc1
Flu-Abs: 31
--
smiles string: CC1=CC(/C=C/c2ccc(Br)s2)=[N+]2C1=C(c1ccc(NC(=O)CCl)cc1)c1cccn1[B-]2(F)F
Flu-Abs: 23
--
smiles string: CC1=CC(/C=C/c2cccc3ccccc23)=[N+]2C1=C(c1ccc(NC(=O)CCl)cc1)c1cccn1[B-]2(F)F
Flu-Abs: 28
--
smiles string: COc1ccc2c(OC)ccc(/C=C/C3=[N+]4C(=C(c5ccc(NC(=O)CCl)cc5)c5cccn5[B-]4(F)F)C(C)=C3)c2c1
Flu-Abs: 90

## Task Form field: reported Flu-Abs of `COc1cccc(/C=C/C2=[N+]3C(=C(c4ccc(NC(=O)CCl)cc4)c4cccn4[B-]3(F)F)C(C)=C2)c1Cl`
## Result 20

## Task Now try `COc1cc(Br)cc(/C=C/C2=[N+]3C(=C(c4ccc(NC(=O)CCl)cc4)c4cccn4[B-]3(F)F)C(C)=C2)c1OC` .
## Result 19

## Task Now try `CC1=CC(/C=C/c2ccc(-c3cccc(Cl)c3)o2)=[N+]2C1=C(c1ccc(NC(=O)CCl)cc1)c1cccn1[B-]2(F)F` .
## Result 42

## Task Now try `CC1=CC(/C=C/c2ccc(C(C)C)cc2)=[N+]2C1=C(c1ccc(NC(=O)CCl)cc1)c1cccn1[B-]2(F)F` .
## Result 22
